Each recorded value in this set is attributed to PubChem BioAssay AID1030.

measuredTarget: Aldehyde dehydrogenase 1A1 (Homo sapiens)
assayRemarks: qHTS Assay for Inhibitors of Aldehyde Dehydrogenase 1 (ALDH1A1)
measurementSetup: Purified ALDH1A1, NADH fluorescence, propionaldehyde substrate; series mostly up to 75.3 µM
The campaign covered roughly 220,000 compounds. About 16,000 (7.3%) were called active. Not shown: some 25% with an inconclusive outcome. Calls follow the shape of the dose curve; as a rule, active = well fitted inhibition curve with a large enough effect (not every such curve was filed as active); inconclusive = small, poorly fitted or top-dose-only effect, or another doubt; inactive = no such curve, though single readings can be large or run the other way. The sample as a whole holds a higher share of actives than the screen did.
Classes used: active, inactive

[
  {
    "compound": "COC(=O)CN1C(=O)C2(C(C(=O)OC)=C(N)Oc3ccccc32)C2=C1CC(C)(C)CC2=O (configuration not stated)",
    "categoryLabel": "active"
  },
  {
    "compound": "CC(=O)Nc1ccccc1C(=O)OCC(=O)c1cccc2ccccc12",
    "categoryLabel": "inactive"
  },
  {
    "compound": "COc1ccc(C(=O)CC2C(=O)N(C)C(=O)N(C)C2=O)cc1",
    "categoryLabel": "active"
  },
  {
    "compound": "COc1ccc2c3c1O[C@H]1C[C@@H](O)C=C[C@@]31CCN(C)C2",
    "categoryLabel": "inactive"
  },
  {
    "compound": "CN(C)C(=O)Oc1cc(=O)n2c3c(cccc13)CCC2",
    "categoryLabel": "inactive"
  },
  {
    "compound": "CCOP(=O)(OCC)C(NC(=O)c1ccc(C)cc1)C(Cl)(Cl)Cl (configuration not stated)",
    "categoryLabel": "inactive"
  },
  {
    "compound": "CCOC(=O)CC1=C(C(=O)OCC)C2(C(=O)N1)C(C(=O)OC)=C(N)Oc1ccccc12 (configuration not stated)",
    "categoryLabel": "inactive"
  },
  {
    "compound": "O=C1N=c2ccccc2=C/C1=C\\c1c(O)[nH]c(=S)[nH]c1=O",
    "categoryLabel": "active"
  },
  {
    "compound": "CCOC(=O)c1ncn2c1[C@@H]1CCCN1C(=O)c1cc(OC)ccc1-2",
    "categoryLabel": "inactive"
  },
  {
    "compound": "CCc1nnc(NS(=O)(=O)c2ccc(N=Cc3c(O)n(-c4ccccc4)c(=O)[nH]c3=O)cc2)s1",
    "categoryLabel": "inactive"
  },
  {
    "compound": "CC1(C)C(c2ccccc2)=NC(c2cccnc2)=[N+]1[O-]",
    "categoryLabel": "inactive"
  },
  {
    "compound": "Cc1nc2nc(C)c(CCC(=O)N3CCC4(CC3)OCCO4)c(C)n2n1",
    "categoryLabel": "inactive"
  },
  {
    "compound": "Cc1ccsc1C(=O)C1CCCN(Cc2ccc(O)cc2)C1 (configuration not stated)",
    "categoryLabel": "inactive"
  },
  {
    "compound": "COP(=O)(NS(=O)(=O)c1ccccc1)OC",
    "categoryLabel": "inactive"
  },
  {
    "compound": "CN(C)/C=C(\\C=[N+](C)C)c1[nH]ncc1[N+](=O)[O-]",
    "categoryLabel": "inactive"
  },
  {
    "compound": "Nc1ccc(C(=O)N/N=C2/CN3CCC2CC3)cc1",
    "categoryLabel": "inactive"
  },
  {
    "compound": "CN(C)P(=S)(Nc1ccccc1)C(Cl)(Cl)Cl (configuration not stated)",
    "categoryLabel": "inactive"
  },
  {
    "compound": "CCCC[N+]1(C)C2CC(OC(=O)C(CO)c3ccccc3)CC1C1OC12 (configuration not stated)",
    "categoryLabel": "inactive"
  },
  {
    "compound": "COc1cc2c(cc1OC)[C@@H]1C(=O)c3ccc(O)c(CC=C(C)C)c3OC1CO2 (some centres not stated)",
    "categoryLabel": "inactive"
  },
  {
    "compound": "O=C1NC(=O)N(c2ccc(F)cc2)C(=O)/C1=C/c1ccc2c(c1)CCCN2Cc1ccccc1",
    "categoryLabel": "active"
  },
  {
    "compound": "CN(C)C(=O)NC(O)C(Cl)(Cl)Cl (configuration not stated)",
    "categoryLabel": "inactive"
  },
  {
    "compound": "Cc1ccc2c(c1)=C/C(=C\\c1c(O)[nH]c(=O)[nH]c1=O)C(=O)N=2",
    "categoryLabel": "active"
  }
]
